Entries with their measured Ki, system Cannabinoid receptor 2 (Rattus norvegicus, UniProt Q9QZN9):
PARAMETER: Ki (µM)

1. C[C@@H]1COc2cccc3c(=O)c(C(=O)NC4CCCCC4)cn1c23
0.03
2. CC[C@H]1COc2cccc3c(=O)c(C(=O)NC45CC6CC(CC(C6)C4)C5)cn1c23
0.097
3. Cc1ccc(C2COc3cccc4c(=O)c(C(=O)NC56CC7CC(CC(C7)C5)C6)cn2c34)cc1 (racemic)
0.482

---

Catalogue of pIC50 readings, one per entry.
- STUDY SYSTEM: Cannabinoid receptor 2 (Homo sapiens, UniProt P34972)
- Sequence (P34972 whole entry): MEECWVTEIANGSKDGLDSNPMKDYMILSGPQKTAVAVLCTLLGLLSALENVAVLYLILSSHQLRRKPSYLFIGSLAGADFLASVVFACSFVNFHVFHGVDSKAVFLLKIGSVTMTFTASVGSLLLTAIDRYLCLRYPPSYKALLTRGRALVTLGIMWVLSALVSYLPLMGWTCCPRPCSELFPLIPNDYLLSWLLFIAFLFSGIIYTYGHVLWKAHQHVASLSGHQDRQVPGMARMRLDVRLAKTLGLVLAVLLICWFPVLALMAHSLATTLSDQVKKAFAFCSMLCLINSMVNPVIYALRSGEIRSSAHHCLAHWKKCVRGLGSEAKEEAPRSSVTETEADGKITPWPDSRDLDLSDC
- TEST DETAILS: Agonist activity at human recombinant CB2 receptor expressed in CHO cell membranes assessed as inhibition of forskolin-induced cAMP accumulation
pIC50: −log10 of the molar value.
PARAMETER: pIC50

1. CC1Oc2cccc3c(=O)c(C(=O)NC45CC6CC(CC(C6)C4)C5)cn(c23)C1c1ccccc1 (racemic)
5.77
2. CC[C@@H]1COc2cccc3c(=O)c(C(=O)NC45CC6CC(CC(C6)C4)C5)cn1c23
7.74
3. O=C(NC12CC3CC(CC(C3)C1)C2)c1cn2c3c(cccc3c1=O)OCC2c1ccccc1 (racemic)
7.59
4. CCC1COc2cccc3c(=O)c(C(=O)NC(C)CCC(C)C)cn1c23 (racemic)
7.21
5. C[C@@H]1COc2cccc3c(=O)c(C(=O)NC4CCCCC4)cn1c23
7.05
6. CCC1COc2c(N3CCN(C)CC3)ccc3c(=O)c(C(=O)NC45CC6CC(CC(C6)C4)C5)cn1c23 (racemic)
6.71
7. CCCC1COc2ccc(C)c3c(=O)c(C(=O)NC45CC6CC(CC(C6)C4)C5)cn1c23 (racemic)
7.38
8. CCC1COc2c(F)c(F)cc3c(=O)c(C(=O)NC45CC6CC(CC(C6)C4)C5)cn1c23 (racemic)
6.84
